# Test system: ATP;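 also: ATP exposure 15 min at 22 °C before imaging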
# experimentalProtocol: switch fluorescence ratio, 500 uM ATP over buffer (Cy3 cluster intensity, sum of 5 cycles each) (fold (ratio)); higher = stronger signal-on switching upon ATP binding; sequences stand for … in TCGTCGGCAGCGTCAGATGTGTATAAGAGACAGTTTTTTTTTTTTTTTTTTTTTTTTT…TC
# experimentalParameters: aptamer strand: ATP DNA aptamer (quencher-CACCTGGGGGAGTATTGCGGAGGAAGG + anchor), 100 nM annealed; ATP concentration: 500 uM
I'd be grateful if you could share measured switch fluorescence ratio for these entries.
Enter the number alone.

Problem: Looking for the measured switch fluorescence ratio of ACGGTTTTAA , can you help?
Result: 1

Problem: What switch fluorescence ratio value was documented for this sequence, GGTTTTGTTG ?
Result: 1.01

Problem: Looking for the measured switch fluorescence ratio of CAAGGCCTGT , can you help?
Result: 0.971

Problem: # get_value(readout='switch fluorescence ratio', item= GGTTATGAGT )
Result: 0.99

Problem: switch fluorescence ratio for ACTCCAATGG ?
Result: 1.85

Problem: Endpoint output: switch fluorescence ratio of GAAGGCGGTT . Value?
Result: 1.03

Problem: Item under review: GGGTGTGGAC . Reported switch fluorescence ratio?
Result: 1.04

Problem: Quick one: switch fluorescence ratio for GGTGGGGCGA ?
Result: 1.01

Problem: If you can, please state the reported switch fluorescence ratio value of ATAAAAGTCC .
Result: 0.979

Problem: Query: switch fluorescence ratio; subject: GGGATCAGTA
Result: 0.96

Problem: # switch fluorescence ratio lookup, item TGCTCTTTGG
Result: 1

Problem: Form field: reported switch fluorescence ratio of GACTCTTGAA
Result: 0.995

Problem: Look up switch fluorescence ratio for this sequence: CTGTAACGAG
Result: 1.01

Problem: What measured switch fluorescence ratio goes with TGTCCTTAAA ?
Result: 0.99

Problem: Suppose we examine the sequence AATGTAAGTT ; what switch fluorescence ratio value has been reported?
Result: 0.975

Problem: For the sequence TAGCTAGGTG , what switch fluorescence ratio is on record?
Result: 1.62

Problem: Which value of switch fluorescence ratio has been reported for AGAGTACTGG in the records?
Result: 1.01

Problem: For the sequence shown here, GCGAAGTGCG , give the reported switch fluorescence ratio.
Result: 0.979

Problem: Given the entry ATGTCACAAA , report its measured switch fluorescence ratio.
Result: 1.03

Problem: Item GGGAAACTAA has what recorded switch fluorescence ratio?
Result: 1.01

Problem: Which value of switch fluorescence ratio has been reported for AAGGTAAGAG in the records?
Result: 0.999

Problem: # query: switch fluorescence ratio of entry TGACCGAAAC
Result: 1.2

Problem: State the recorded switch fluorescence ratio for this entry: GAGTGTTCTT
Result: 0.977

Problem: switch fluorescence ratio for TCAGAGGAAT ?
Result: 1.01

Problem: Any idea what its switch fluorescence ratio is? The sequence is AATGAATTCG
Result: 1

Problem: # get_value(readout='switch fluorescence ratio', item= TCAGGTTCGT )
Result: 0.987

Problem: What value of switch fluorescence ratio has been reported for the following sequence? TTTTAGGTTA
Result: 0.986

Problem: Quick check: switch fluorescence ratio of AATTAGTGTG ?
Result: 0.987

Problem: If you can, please state the reported switch fluorescence ratio value of TTTAAAGAAT .
Result: 1.04

Problem: Please give the measured switch fluorescence ratio for this sequence: GAGTTACGGG
Result: 1.01

Problem: What switch fluorescence ratio value was documented for this sequence, TAAGGGACGT ?
Result: 1.01

Problem: Please give the measured switch fluorescence ratio for this sequence: GGGAATGTTC
Result: 1.01

Problem: // lookup switch fluorescence ratio for ACTAGAAGGG
Result: 0.983

Problem: # query: switch fluorescence ratio of entry GTTGGGATTG
Result: 1.01

Problem: Consider the sequence AGGGGGGGCC and give its measured switch fluorescence ratio.
Result: 0.992

Problem: Field request: switch fluorescence ratio | item: GGTTAAGGGA
Result: 0.982

Problem: Fill in: switch fluorescence ratio of TCTAAGTGAG is ___
Result: 1.02

Problem: # query: switch fluorescence ratio of entry ACTCACATAG
Result: 1.22

Problem: May I ask what switch fluorescence ratio has been recorded for CGCGGCTGGG ?
Result: 1

Problem: What value of measured switch fluorescence ratio is listed for TTTTCCAATA ?
Result: 1.52

Problem: Give its switch fluorescence ratio value. Item: CTAGTTAAGG
Result: 1.01

Problem: So what does the record say about switch fluorescence ratio for GGGGCCACGA ?
Result: 1.01

Problem: // lookup switch fluorescence ratio for TTCGGGCAGG
Result: 1.06

Origin of values: the supplement of paper PMC10126150
